Reference source for all entries: PubChem BioAssay AID1259407

Tested on: CCRIS mutagenicity, Ames/micronucleus/aberration tests
Assay: CCRIS mutagenicity studies
Details: Test System: AMES SALMONELLA TYPHIMURIUM; Strain/Indicator: TA98; Metabolic Activation: RAT, LIVER, S-9, AROCLOR 1254; Method: STANDARD PLATE
Activity calls are given as the source filed them. No rule for the calls is given here.
Would you mind answering with one of these outcomes? 1 (active), 0 (inactive)

Example entries begin here.
compound	category label
Nc1cc([N+](=O)[O-])c(N)cc1F	1
c1ccc(C(c2ccccc2)c2ccccc2)cc1	0
O=[N+]([O-])c1ccc2ccc3cc4c(c5ccc1c2c35)CCC=C4	1
COC1=CC(=O)c2c(nc(C)c3c2[nH]c2ccccc23)C1=O	1
O=Nc1ccc2c(c1)Cc1ccccc1-2	1

How did this test come out for `O=C(O)[C@H](O)[C@@H](O)C(=O)O` ?
0

Then what about the compound `Cl/C=C/Cl` ?
1

Another compound to check: `C=CC#N`
0

Same thing, different compound: `Nc1ccc(/C=C\c2ccc([N+](=O)[O-])cc2)cc1`
1

Now consider `Cc1c(C)c([N+](=O)[O-])c(C(C)(C)C)c([N+](=O)[O-])c1C` .
0

Also `CN(CCO)CCO` , if possible.
0

// same read-out, input: `Cc1cc(O)c2c(c1)C(=O)c1cccc(O)c1C2=O`
0

Please do the same for `COc1cc([N+](=O)[O-])ccc1NC(C)=O` as well.
0

Similarly, CCC(CCC(C)=O)COC(=O)c1ccccc1C(=O)O (centres undefined) ?
0

Request: OC1CC=Cc2c1cc1ccc3cccc4ccc2c1c34 (centres undefined)
1

Try this compound next: O=NN1CCSC1[C@H](O)[C@@H](O)[C@@H](O)CO (some centres undefined)
0

Same question for `C[N+]1(C)CCOCC1` please.
0

Next compound up: `CN(C)c1ccc(Cc2ccc(N(C)C)cc2)cc1`
0

# iterate: `CCCCB(CCCC)CCCC`
1

Param item: `O=[N+]([O-])c1ccc2[nH]ncc2c1`
1

Now this one: `ClC(Cl)(Cl)Br`
0

Entry `CCOCCc1c(-c2ccccc2)nc(N)n2ncnc12` please
0
